Experiment: DUSP6 inhibitors restoring Erk phosphorylation by chemical complementation, primary imaging in DUSP6-transfected HeLa (AID 609)
Conditions: HeLa MKP-3 transfected, phospho-Erk imaging KS statistic; measured here: nuclear pErk red intensity z-score; at 10 µM; stronger effect = higher value; cells stimulated with TPA for 15 min
Dear colleague, classification is by z-score, with ranges listed here: class 0 (below -0.9), class 1 (-0.9 to below 0.02), class 2 (0.02 or more)

Answered cases to consult:
# Compound, Assigned Label
measured = [
    ("O=C1CSC(=Nc2ccc(O)cc2)N1c1ccc(O)cc1", "class 0"),
    ("Nc1ccc2ncccc2c1N", "class 1"),
    ("Nc1ncnc2c1ncn2[C@@H]1O[C@H](CO)[C@@H](O)[C@H]1O", "class 2"),
    ("COC(=O)/C=c1/s/c(=C(/C#N)C(=O)N2CCOCC2)n(-c2ccccc2)c1=O", "class 1"),
    ("Cn1c(=NCC(O)COc2ccccc2)sc2ccccc21 (configuration not stated)", "class 2"),
    ("CCN(CC)CCNc1nc2c(c(=O)[nH]c(=O)n2C)n1CCOc1ccccc1", "class 1"),
]

For O=C(O)/C=C/c1ccc(O)c(O)c1 , which z-score bin applies?
class 1

How about this compound: C=CCOc1nc2c(c(=O)n(Cc3ccc(Cl)c(Cl)c3)c(=O)n2C)n1C
class 0

How about this compound: COCCN(C(=O)Nc1ccccc1)c1ccccc1C
class 1

How about this compound: CCC1(C)Cc2c(sc3c2c(=O)n(C)c2nnc(SCc4ccc5c(c4)OCO5)n32)CO1 (configuration not stated)
class 0

How about this compound: Cc1cc(C)cc(-n2c3nc4ccccc4nc3c3c(=O)n(Cc4ccco4)cnc32)c1
class 1

How about this compound: Nc1nc(N)c2nc(-c3ccccc3)c(N)nc2n1
class 2
